# System: RPMI-8226 leukemia
# TEST_METHOD_NOTES: NCI-60 one-dose screen, 48 h
# EXPERIMENTAL_PARAMETERS: 10 µM unless noted
This is part of a sample that, as a whole, favours compounds with a hit. Of some 83,000 tested, about 20% had one in any assay. Activity calls are given as the source filed them. Rule for the calls: active = growth percent below 10; inactive = the rest.
Can you answer with just one of these options? active, inactive

mol_smiles=COc1cc(C(=O)/C=C/c2ccc(OCCCCCC[P+](c3ccccc3)(c3ccccc3)c3ccccc3)cc2)cc(OC)c1OC test_target="RPMI-8226 leukemia" class_assignment=active
mol_smiles=COc1ccc2c(c1OC)C(=O)O[C@H]2[C@H]1c2c(cc3c(c2OC)OCO3)CCN1C test_target="RPMI-8226 leukemia" class_assignment=inactive

*Q* What classification did `C[C@]12CC[C@@H]3c4cc(OC(F)F)c(OS(N)(=O)=O)cc4CC[C@H]3[C@@H]1CC[C@@H]2O` end up with in this test?
*A* inactive

*Q* Next record, please: `CCOc1ccc2nc(SCc3nc4n(n3)S(=O)(=O)c3ccccc3N4C)sc2c1`
*A* inactive

---

Provide the reported growth of each item.
# Test system: RXF 393 renal
# TEST_METHOD_NOTES: NCI-60 one-dose screen, 48 h (100 = growth as untreated, 0 = no growth, -100 = all killed)
# EXPERIMENTAL_PARAMETERS: 10 µM unless noted
# Method: Cells are grown in 96 well plates and exposed to the test compound for 48 hours. Compounds are tested at a single concentration, which is 10^-5 M for most compounds. The reported endpoint is percent growth (GI% or GIPRCNT), where numbers from 0 - 100% represent growth inhibition, and numbers from -100% - 0 represent cell death. For example, a value of 40 represents 60% growth inhibition. A value of 0 means no net growth occurred over the course of the experiment. […]
The panel holds about 83,000 compounds, 20% with a hit somewhere; the sample as a whole holds those more often.
Numbers only, in %.

// worked examples, growth included
mol_smiles=C=C1CC[C@@]2(C#N)[C@H]3[C@H](CC[C@@H]2C)[C@@H](C)C[C@@H](CC(C)(C)C#N)[C@H]13 test_target="RXF 393 renal" reported_measurement=86.2
mol_smiles=O=[N+]([O-])c1ccccc1NCSc1ccc(Cl)cc1 test_target="RXF 393 renal" reported_measurement=88.9
mol_smiles=Nc1nc2ccccc2c2c(=O)c3cc(F)ccc3sc12 test_target="RXF 393 renal" reported_measurement=104
mol_smiles=COc1nc2ccccc2cc1-c1nc2c(cnn2-c2ccccc2)c(=O)[nH]1 test_target="RXF 393 renal" reported_measurement=67.1

Kindly consider the entry below.
*Q* Missing value: growth, RXF 393 renal, entry `CCN(CC)CCCNc1nc2ccccc2c2c(=O)c3cc(Cl)ccc3sc12` . Fill in?
*A* 76

---

# Test system: RXF 393 renal
# TEST_METHOD_NOTES: NCI-60 one-dose screen, 48 h (100 = growth as untreated, 0 = no growth, -100 = all killed)
# EXPERIMENTAL_PARAMETERS: 10 µM unless noted
About 83,000 compounds went through this panel and 20% of them were active in at least one assay; those are over-represented in the sample as a whole. Active and inactive are the calls of the source. Rule for the calls: active = growth percent below 10; inactive = the rest.
Provide the reported growth of each item.

// worked examples, growth included
molecule=Fc1cc2c(cc1Cl)N(c1ncnc3ccc(-c4cnc5cnccn45)cc13)CC2 reported_measurement="62% (inactive)"
molecule=Cc1cccc2c1S/C(=C/c1ccc([N+](=O)[O-])cc1)C2=O reported_measurement="140% (inactive)"
molecule=CN1CCN(c2ccc(-c3ccc4ncc(C#N)c(Nc5ccc(F)c(Cl)c5)c4c3)cn2)CC1 reported_measurement="27.3% (inactive)"
molecule=Cc1cc(=O)oc2cc(OC(=O)CN3CCN(C)CC3)ccc12 reported_measurement="101% (inactive)"
molecule=CCCCCCNC(=O)Oc1ccc(/C(=C(\C)c2ccc(Cl)cc2)c2ccc(OCCCN(C)C)cc2)cc1 reported_measurement="80.1% (inactive)"
molecule=O=c1c2cc(F)ccc2sc2c(N3CCNCC3)nc3ccccc3c12 reported_measurement="58.1% (inactive)"
molecule=O=c1[nH]c2c(ccc3cnccc32)c2c1CCC2 reported_measurement="-53.8% (active)"
molecule=CCOC(=O)/C=C1\S/C(=N\Nc2ccc([N+](=O)[O-])cc2[N+](=O)[O-])N(Cc2ccccc2)C1=O reported_measurement="78% (inactive)"

// for each molecule in input: emit growth
1. Cc1nc2ccccc2c(/C=C/c2ccc(Cl)cc2)c1C(=O)/C=C/c1cccs1
2. COc1cccc(Oc2ccccc2NC(=O)CNC(=O)c2cccc3ccccc23)c1
3. Cc1onc2c(-c3ccccc3)n[nH]c(=O)c12
4. COc1ccc(CN2c3ccccc3Sc3ccccc32)c(F)c1
5. COc1cc(C(=O)/C=C/c2c(Cl)nc3sccn23)cc(OC)c1OC
6. O=C(Nc1ccc(Cl)cc1F)c1ccccc1O

*A*
1. 83.7% (inactive)
2. 52.4% [5 µM] (inactive)
3. 122% (inactive)
4. 0.721% (active)
5. 79.5% (inactive)
6. 42.5% (inactive)

// for each molecule in input: emit growth
1. N#CC1=C(N)Oc2c(sc3c(Br)cccc23)C1c1ccc(Br)cc1 (stereo unspecified)
2. c1cc2nc(-c3cn[nH]c3)c3c(c2cc1-c1cn[nH]c1)C1CCC3C1 (stereo unspecified)
3. COc1ccc(-c2cc(-c3ccc(Cl)cc3)c(C#N)c(=O)n2CCCCCC(=O)Nc2ccccc2N)cc1
4. COc1ccc(C2C(C#N)=C(N)Oc3c2sc2c(C)cccc32)cc1 (stereo unspecified)

*A*
1: -2.19% (active); 2: 15.3% (inactive); 3: 29.8% (inactive); 4: -11.7% (active)

// for each molecule in input: emit growth
1. COc1ccc(OC)c(/C=C/C(=O)N/N=C/c2ccccc2)c1
2. BrCCCc1n(Cc2ccc3ccccc3c2)c2ccccc2[n+]1Cc1ccc2ccccc2c1
3. NS(=O)(=O)c1ccc(-n2nc(-c3ccc(Cl)cc3)c3ccccc3c2=O)cc1
4. CN(C)c1ccc(/C=N\Nc2cc(=O)[nH]c3ccc(Cl)cc23)cc1
5. Cc1cccc2c3c(sc12)C(c1ccc(Cl)cc1)C(C#N)=C(/N=C/c1ccc(Cl)cc1)O3 (stereo unspecified)
6. Cc1nc(/N=C(\N)NC(=O)Nc2cccc(Cl)c2)sc1C
7. NC1=NC(c2cccc(Br)c2)c2sc3ccc(Cl)cc3c2N1 (stereo unspecified)

*A*
1. 45.4% (inactive)
2. -77.6% (active)
3. 98.8% (inactive)
4. 105% (inactive)
5. -15.3% (active)
6. 87.8% (inactive)
7. 110% (inactive)

// for each molecule in input: emit growth
1. CCOC(=O)c1[nH]c(C)c(C(=O)OCc2ccccc2C#N)c1C
2. COc1cccc(-c2nc(-c3ccc(NC(=O)C(C)C)cc3)[nH]c2-c2ccnc(Br)c2)c1
3. NC1=C(c2nn[nH]n2)C(c2ccccc2Cl)c2ccc3ccccc3c2O1 (stereo unspecified)
4. Cc1ccc(C(C)C)cc1C(=O)C[n+]1ccccc1
5. Cc1nc2ccccc2n1CC1C(=O)NC(=O)NC1=O
6. COc1ccc(/C=C/c2c(C(=O)/C=C/c3ccc(Cl)cc3)c(C)nc3ccccc23)cc1
7. C=C1C(=O)O[C@H]2[C@H]1CC/C(COC(=O)NCCOCCOCC(=O)Nc1ccc(OC)c(C(N)=O)c1O)=C\CC[C@@]1(C)O[C@@H]21
8. CCOc1c(B(O)O)cccc1-c1nc2ccc3[nH]ncc3c2c2c1CCCC2

*A*
1. 58.3% (inactive)
2. -31% (active)
3. 79.3% (inactive)
4. 121% (inactive)
5. 123% (inactive)
6. -18.6% (active)
7. -9.54% (active)
8. -5.22% (active)

// for each molecule in input: emit growth
1. CC([C@H]1CCC2C3CCC4C[C@@H](NC=O)CC[C@]4(C)C3CC[C@@]21C)N(C)C (stereo partly specified)
2. COc1cc(Nc2cn[nH]c2-c2ccc(Cl)cc2)cc(OC)c1OC
3. N#CC1=C(N)Oc2c(sc3c(Br)cccc23)C1c1ccc([N+](=O)[O-])cc1 (stereo unspecified)
4. COc1ccc2c(c1)c(-c1nn3cc(-c4cccs4)nc3s1)cn2C
5. CCCCCCCCCCCCCCCCCCOc1ccccc1CC(=O)OCC[N+](CC)(CC)CC

*A*
1. -51.2% (active)
2. 51.5% (inactive)
3. 17.6% (inactive)
4. 96.3% (inactive)
5. -16.9% (active)

// for each molecule in input: emit growth
1. FC(F)(F)c1cc(Nc2ccc3c(OCCCN4CCOCC4)cccc3n2)ccc1Cl
2. NS(=O)(=O)c1ccc(N=Nc2ccc(-c3nn4cc(-c5ccccc5)nc4s3)cc2)cc1
3. Clc1ccc(C(/C=C/c2sc(Cl)nc2Cl)=N/Nc2cc(Cl)cc(Cl)c2)cc1

*A*
1. 23.9% (inactive)
2. 111% (inactive)
3. 110% (inactive)
